Ref: the supplement of paper PMC10702517

test: chemical recovery into PDMS from spiked human plasma; higher = better extraction; details: pooled human plasma; extraction method: PES with PDMS; equilibration time (d): 6
Below, each entry is listed with its recorded chemical recovery into PDMS.
State just the number; it will be interpreted in %.

Sample records with chemical recovery into PDMS:
- compound: "CC(C)C(=O)Nc1ccc([N+](=O)[O-])c(C(F)(F)F)c1 [Flutamide]"
  chemical recovery into PDMS, %: 36.7
- compound: "CSc1nc(NC2CC2)nc(NC(C)(C)C)n1"
  chemical recovery into PDMS, %: 20.9
- compound: "Oc1ccc(Cl)cc1Cc1cc(Cl)ccc1O"
  chemical recovery into PDMS, %: 2.38
- compound: "CN(C)C(=O)Nc1ccc(Oc2ccc(Cl)cc2)cc1"
  chemical recovery into PDMS, %: 42.8
- compound: "c1ccc2sc(N3CCOCC3)nc2c1"
  chemical recovery into PDMS, %: 30.7

Would you kindly share the measured chemical recovery into PDMS for COC[P+](c1ccccc1)(c1ccccc1)c1ccccc1 ?
0.00283

Would you kindly share the measured chemical recovery into PDMS for Cc1ccc(OP(=O)(Oc2ccc(C)cc2)Oc2ccc(C)cc2)cc1 [Tricresylphosphate] ?
54
